Origin of values: PubChem BioAssay AID1963875

Below: a set of entries, each annotated with reported viability, T/C.
- System: KRAS-mutant PDC complex spheroid viability
- experiment-summary: Anticancer human tumor 186277-243-T-J2-PDC patient-derived colon adenocarcinoma cell line growth inhibition [KRAS2]
- reported-conditions: second compound 1 µM; first compound 10 µM; stronger effect = lower value

Would you please look over these solved cases?
compound: O=C(c1cc(Cc2n[nH]c(=O)c3ccccc23)ccc1F)N1CCN(C(=O)C2CC2)CC1 + CC1OCC2(CCN(c3cnc(Sc4ccnc(N)c4Cl)c(N)n3)CC2)C1N
viability, T/C: 23.8%
//
compound: Cn1nccc1Nc1nccc(-c2cc3c(s2)C(C)(C)N(CCN2CCOCC2)C3=O)n1 + CNCc1ccccc1-c1csc(C(C)Nc2nc(C)nc3cc(OC)c(OC)cc23)c1
viability, T/C: 2.61%
//
compound: CC(C)NCC(C(=O)N1CCN(c2ncnc3c2C(C)CC3O)CC1)c1ccc(Cl)cc1 (stereo not given) + COc1cc2nc(C)nc(NC(C)c3cc(N)cc(C(F)(F)F)c3)c2cc1OC1CCOC1
viability, T/C: 0.23%
//
compound: CCNC(=O)CC1N=C(c2ccc(Cl)cc2)c2cc(OC)ccc2-n2c(C)nnc21 (stereo not given) + C=CC(=O)N1CCN(c2nc(=O)n(-c3c(C)ccnc3C(C)C)c3nc(-c4c(O)cccc4F)c(F)cc23)C(C)C1
viability, T/C: 49.4%

Field: next compound
Sample COc1cc(Nc2ncc3c(n2)-c2ccc(Cl)cc2C(c2c(F)cccc2OC)=NC3)ccc1C(=O)O + C=CC(=O)N1CCN(c2nc(OCC3CCCN3C)nc3c2CCN(c2cccc4cccc(C)c24)C3)CC1CC#N ; viability, T/C observed: 21.6%

---

- Tested on: KRAS-mutant PDC complex spheroid viability
- experiment-summary: Anticancer human tumor 186277-243-T-J2-PDC cell line growth inhibition [KRAS2]; active = viability on the fitted dose curve at most 10% of control; inactive = the rest
- reported-conditions: second compound 1 µM; first compound 1 µM
Return exactly one item of active, inactive

Recorded results for 2 molecules are shown here.
molecule: CC(C)NCC(C(=O)N1CCN(c2ncnc3c2C(C)CC3O)CC1)c1ccc(Cl)cc1 (stereo not drawn) + COc1cc2nc(C)nc(NC(C)c3cc(N)cc(C(F)(F)F)c3)c2cc1OC1CCOC1
class-name: inactive

molecule: CC1COCCN1c1cc(-c2ccnn2C)c2ccnc(-c3ccn[nH]3)c2n1 (stereo not drawn) + COc1cc2nc(C)nc(NC(C)c3cc(N)cc(C(F)(F)F)c3)c2cc1OC1CCOC1
class-name: active

## Input # fetch the recorded call for COc1cc2nccc(Oc3ccc(NC(=O)C4(C(=O)Nc5ccc(F)cc5)CC4)cc3)c2cc1OC + CC1OCC2(CCN(c3cnc(Sc4ccnc(N)c4Cl)c(N)n3)CC2)C1N here
## Output inactive

---

- System: KRAS-mutant PDC complex spheroid viability
- experiment-summary: Anticancer human tumor 186277-243-T-J2-PDC cell line growth inhibition [KRAS2];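 for viability, T/C: viability read after seven days of compound exposure; 100% = DMSO vehicle-treated spheroids so lower means less viable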
- reported-conditions: second compound 0.1 µM; first compound 1 µM; stronger effect = lower value
Output Yes for records whose viability, T/C is lower than 90%, No for records at or above 90%.

compound: CC1(C)CCC(CN2CCN(c3ccc(C(=O)NS(=O)(=O)c4ccc(NCC5CCOCC5)c([N+](=O)[O-])c4)c(Oc4cnc5[nH]ccc5c4)c3)CC2)=C(c2ccc(Cl)cc2)C1 + CC1OCC2(CCN(c3cnc(Sc4ccnc(N)c4Cl)c(N)n3)CC2)C1N
class-name: No

compound: CC(C)NCC(C(=O)N1CCN(c2ncnc3c2C(C)CC3O)CC1)c1ccc(Cl)cc1 (stereo not given) + CC1OCC2(CCN(c3cnc(Sc4ccnc(N)c4Cl)c(N)n3)CC2)C1N
class-name: Yes

compound: CCNC(=O)CC1N=C(c2ccc(Cl)cc2)c2cc(OC)ccc2-n2c(C)nnc21 (stereo not given) + CC1OCC2(CCN(c3cnc(Sc4ccnc(N)c4Cl)c(N)n3)CC2)C1N
class-name: No

Now look at this one.
## Input Confirm or reject: viability, T/C of Cn1nccc1Nc1nccc(-c2cc3c(s2)C(C)(C)N(CCN2CCOCC2)C3=O)n1 + C=CC(=O)N1CCN(c2nc(=O)n(-c3c(C)ccnc3C(C)C)c3nc(-c4c(O)cccc4F)c(F)cc23)C(C)C1 lies strictly below 90%
## Output Yes

---

- System: KRAS-mutant PDC complex spheroid viability
- experiment-summary: Anticancer human tumor 186277-243-T-J2-PDC cell line growth inhibition [KRAS2]
- reported-conditions: curve of first compound; second compound 3.16 µM
observation-type: pIC50
Worth noting: pIC50 values are minus log10 of concentrations stated in mol/L.

Some compounds with recorded pIC50:
compound: CC(C)n1nc(-c2ccc3oc(N)nc3c2)c2c(N)ncnc21 + COc1cc2nc(C)nc(NC(C)c3cc(N)cc(C(F)(F)F)c3)c2cc1OC1CCOC1
tested-on: KRAS-mutant PDC complex spheroid viability
pIC50: 7.76

compound: COc1cc2nccc(Oc3ccc(NC(=O)C4(C(=O)Nc5ccc(F)cc5)CC4)cc3)c2cc1OC + CC1OCC2(CCN(c3cnc(Sc4ccnc(N)c4Cl)c(N)n3)CC2)C1N
tested-on: KRAS-mutant PDC complex spheroid viability
pIC50: 6.09

compound: COC(=O)c1ccc2c(C(=Nc3ccc(N(C)C(=O)CN4CCN(C)CC4)cc3)c3ccccc3)c(O)[nH]c2c1 + CC1OCC2(CCN(c3cnc(Sc4ccnc(N)c4Cl)c(N)n3)CC2)C1N
tested-on: KRAS-mutant PDC complex spheroid viability
pIC50: 6.16

Now look at this one.
Considering CN(C)C/C=C/C(=O)Nc1cc2c(Nc3ccc(F)c(Cl)c3)ncnc2cc1O[C@H]1CCOC1 + CC1OCC2(CCN(c3cnc(Sc4ccnc(N)c4Cl)c(N)n3)CC2)C1N , its pIC50 with KRAS-mutant PDC complex spheroid viability was recorded as 7.54

---

Items are presented alongside their recorded IC50.
- Test system: KRAS-mutant PDC complex spheroid viability
- experiment-summary: Anticancer human tumor 186277-243-T-J2-PDC cell line growth inhibition [KRAS2]
- reported-conditions: curve of compound

compound: COC(=O)c1ccc2c(C(=Nc3ccc(N(C)C(=O)CN4CCN(C)CC4)cc3)c3ccccc3)c(O)[nH]c2c1
tested-on: KRAS-mutant PDC complex spheroid viability
assay-result: 3.62 µM [middle of 4 runs]
--
compound: CC(=O)Nc1cccc(-n2c(=O)n(C3CC3)c(=O)c3c(Nc4ccc(I)cc4F)n(C)c(=O)c(C)c32)c1
tested-on: KRAS-mutant PDC complex spheroid viability
assay-result: 0.622 nM [middle of 5 runs]
--
compound: Cn1nccc1Nc1nccc(-c2cc3c(s2)C(C)(C)N(CCN2CCOCC2)C3=O)n1
tested-on: KRAS-mutant PDC complex spheroid viability
assay-result: 383 nM [middle of 5 runs]

Hey, KRAS-mutant PDC complex spheroid viability data for CC(C)NCC(C(=O)N1CCN(c2ncnc3c2C(C)CC3O)CC1)c1ccc(Cl)cc1 (stereo not given) : IC50 came out at 746 nM [middle of 5 runs]

Query `CC(C)n1nc(-c2ccc3oc(N)nc3c2)c2c(N)ncnc21` on KRAS-mutant PDC complex spheroid viability; IC50 returned: 14.1 nM [middle of 5 runs]

---

Recorded pIC50 for the following molecules
- Tested on: KRAS-mutant PDC complex spheroid viability
- experiment-summary: Anticancer human tumor 186277-243-T-J2-PDC cell line growth inhibition [KRAS2]
- reported-conditions: curve of first compound; second compound 3.16 µM
pIC50 is a log-scale quantity: -log10 of the concentration expressed in molar.

Consider the reported pIC50 for these molecules:
molecule: Cn1nccc1Nc1nccc(-c2cc3c(s2)C(C)(C)N(CCN2CCOCC2)C3=O)n1 + CNCc1ccccc1-c1csc(C(C)Nc2nc(C)nc3cc(OC)c(OC)cc23)c1
tested-on: KRAS-mutant PDC complex spheroid viability
observation-type: pIC50
assay-result: 7.04
//
molecule: CN(C)C/C=C/C(=O)Nc1cc2c(Nc3ccc(F)c(Cl)c3)ncnc2cc1O[C@H]1CCOC1 + CNCc1ccccc1-c1csc(C(C)Nc2nc(C)nc3cc(OC)c(OC)cc23)c1
tested-on: KRAS-mutant PDC complex spheroid viability
observation-type: pIC50
assay-result: 8.14
//
molecule: O=C(c1cc(Cc2n[nH]c(=O)c3ccccc23)ccc1F)N1CCN(C(=O)C2CC2)CC1 + CC1OCC2(CCN(c3cnc(Sc4ccnc(N)c4Cl)c(N)n3)CC2)C1N
tested-on: KRAS-mutant PDC complex spheroid viability
observation-type: pIC50
assay-result: 5.72

// switching to the query molecule
// pIC50 (KRAS-mutant PDC complex spheroid viability) for CC1COCCN1c1cc(-c2ccnn2C)c2ccnc(-c3ccn[nH]3)c2n1 (stereo not given) + CC1OCC2(CCN(c3cnc(Sc4ccnc(N)c4Cl)c(N)n3)CC2)C1N = 7.68

---

- System: KRAS-mutant PDC complex spheroid viability
- experiment-summary: Anticancer human tumor 186277-243-T-J2-PDC cell line growth inhibition [KRAS2];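 for viability, T/C: viability read after seven days of compound exposure; 100% = DMSO vehicle-treated spheroids so lower means less viable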
- reported-conditions: second compound 0.1 µM; first compound 1 µM; stronger effect = lower value
observation-type: viability, T/C

compound: CC(=O)OC12COC1CC(O)C1(C)C(=O)C(O)C3=C(C)C(OC(=O)C(O)C(NC(=O)OC(C)(C)C)c4ccccc4)CC(O)(C(OC(=O)c4ccccc4)C21)C3(C)C (configuration not stated) + C=CC(=O)N1CCN(c2nc(OCC3CCCN3C)nc3c2CCN(c2cccc4cccc(C)c24)C3)CC1CC#N
tested-on: KRAS-mutant PDC complex spheroid viability
assay-result: 3.09%

// CCN1CCN(Cc2ccc(Nc3ncc(F)c(-c4cc(F)c5nc(C)n(C(C)C)c5c4)n3)nc2)CC1 + C=CC(=O)N1CCN(c2nc(=O)n(-c3c(C)ccnc3C(C)C)c3nc(-c4c(O)cccc4F)c(F)cc23)C(C)C1 : viability, T/C value = 96.6%
